target: human plasma kallikrein (Homo sapiens, UniProt P03952); assay: Determination of the plasma kallikrein activity (fluorogenic peptide substrate); conditions: plasma kallikrein from Kordia 0.6 nM; substrate H-Pro-Phe-Arg-AMC; 30 min at 22° C.
Sequence (P03952 391-638 limits assumed): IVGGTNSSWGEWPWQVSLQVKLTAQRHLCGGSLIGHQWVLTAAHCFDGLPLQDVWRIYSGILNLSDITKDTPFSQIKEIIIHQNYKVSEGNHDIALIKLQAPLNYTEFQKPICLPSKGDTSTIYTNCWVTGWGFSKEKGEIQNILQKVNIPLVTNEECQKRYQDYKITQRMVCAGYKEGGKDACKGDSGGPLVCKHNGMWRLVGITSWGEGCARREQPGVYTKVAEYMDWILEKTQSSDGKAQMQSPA
Sequence (P03952 20-390 partner limits assumed): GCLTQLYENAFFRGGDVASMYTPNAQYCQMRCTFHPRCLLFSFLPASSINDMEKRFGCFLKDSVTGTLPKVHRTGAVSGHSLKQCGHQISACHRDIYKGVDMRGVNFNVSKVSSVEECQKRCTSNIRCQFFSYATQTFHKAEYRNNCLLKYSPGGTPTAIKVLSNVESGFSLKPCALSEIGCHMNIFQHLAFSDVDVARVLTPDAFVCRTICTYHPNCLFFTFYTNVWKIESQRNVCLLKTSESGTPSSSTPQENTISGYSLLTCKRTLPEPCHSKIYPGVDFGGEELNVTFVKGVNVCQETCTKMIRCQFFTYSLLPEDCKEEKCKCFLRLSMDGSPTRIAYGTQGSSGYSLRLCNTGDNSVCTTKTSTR
Measured pIC50 by item
To interpret pIC50, take it as minus log10 of a concentration measured in moles per litre.

COc1cn(C(CCOC2CCC2)C(=O)Nc2ccc(C(=O)O)cc2)c(=O)cc1-c1cc(Cl)ccc1C#N (racemic) : 8.59
COc1cn([C@@H](CCOC(C)C)C(=O)Nc2ccc(C(=O)O)cc2)c(=O)cc1-c1cc(Cl)ccc1C#N (single isomer, unassigned; enantiomer 2) : 8.32

# ---- query molecule ----
[Q] Find the measured pIC50 of COc1cn([C@@H](CCOC(C)(C)C)C(=O)Nc2ccc(C(=O)O)cc2)c(=O)cc1-c1cc(Cl)ccc1C#N (single isomer, unassigned; enantiomer 2) and report it.
[A] 8.66

Where these numbers come from: patent US20190119213A1
